Listed here: items and their measured half-life at 1 h, 1 µM.
# test method notes: in vitro
# reported conditions: mouse, liver microsomes
quantity: half-life at 1 h, 1 µM (h)

compound=CC(C)c1cnn2c(NCc3ccccc3)cc(NC[C@H]3CCNC[C@@H]3O)nc12 result_value=1.75
compound="COC1CCCC2(CCNCC2)CNc2nc(n3ncc(C(C)C)c3n2)NCc2ccccc2OC1 (configuration not stated)" result_value=0.462

###

# test method notes: in vitro
# reported conditions: human, liver microsomes
Listed here: items and their measured half-life at 1 h, 1 µM.
quantity: half-life at 1 h, 1 µM (min)

compound="COC1CCCC2(CCNCC2)CNc2nc(n3ncc(C(C)C)c3n2)NCc2ccccc2OC1 (configuration not stated)" quantity="half-life at 1 h, 1 µM" unit_of_measurement=min censoring_operator== result_value=16.9
compound="CC(C)c1cnn2c(NCc3ccccc3)cc(NC[C@H]3CCNC[C@@H]3O)nc12 [CT-7001]" quantity="half-life at 1 h, 1 µM" unit_of_measurement=min censoring_operator=> result_value=186
